Ref: the supplement of paper PMC7877785

assay: self-splicing fitness, log relative to wild type (ln ratio); higher = more splicing; Tetrahymena group I intron in knt gene, E. coli kanamycin selection, DiMSum; sequences stand for … in CUCUCU…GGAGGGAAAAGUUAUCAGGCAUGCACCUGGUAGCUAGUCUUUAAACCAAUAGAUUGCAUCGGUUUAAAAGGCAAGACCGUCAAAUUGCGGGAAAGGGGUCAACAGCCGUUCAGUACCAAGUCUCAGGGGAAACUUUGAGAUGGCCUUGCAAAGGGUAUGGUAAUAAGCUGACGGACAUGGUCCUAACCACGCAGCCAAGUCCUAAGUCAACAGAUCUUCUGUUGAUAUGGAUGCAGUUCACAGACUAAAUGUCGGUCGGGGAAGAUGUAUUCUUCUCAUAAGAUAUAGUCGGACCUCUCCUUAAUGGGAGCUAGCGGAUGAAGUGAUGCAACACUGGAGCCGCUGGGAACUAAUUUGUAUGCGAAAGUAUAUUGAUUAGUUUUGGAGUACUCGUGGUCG; conditions: 37 °C;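 also: selection with 25 µg/mL kanamycin versus none on LB agar overnight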

| sequence.entry | self-splicing fitness (ln) |
| --- | --- |
| AGAGAGCAAUAUUACGGGUU | -2.08 |
| GCACAGCAAUAUUACGAGUU | -0.499 |
| GACUAGCAAUAUUACGCACG | 0.219 |
| GAGCAGCAAUAUUACGGAUG | -1.73 |
| ACGAAGCAAUAUUACGCCGG | -0.467 |
| UUGUAGCAAUAUUACGUCUA | -0.738 |
| CUCCAGCAAUAUUACGACCA | -1.37 |
| ACCCAGCAAUAUUACGUAGU | 0.0745 |
| GUGUAGCAAUAUUACGCUUC | -3.09 |
| GUUUAGCAAUAUUACGUUCU | -0.628 |
| GAGCAGCAAUAUUACGUUCA | -0.931 |
| GUUCAGCAAUAUUACGUGCG | -0.215 |
| GCCUAGCAAUAUUACGGCAG | -2.18 |
| GAAGAGCAAUAUUACGAAGC | -0.865 |
| GAGAAGCAAUAUUACGACCA | 0.744 |
| GAAGAGCAAUAUUACGGUCC | -2.32 |
| CACAAGCAAUAUUACGCGUG | -2.24 |
| GACCAGCAAUAUUACGUCGA | -0.592 |
| AAACAGCAAUAUUACGGAGA | -2.57 |
| GGAUAGCAAUAUUACGGAGG | -2.77 |
| CCCCAGCAAUAUUACGAAUG | -2.3 |
| CUAAAGCAAUAUUACGCAGU | -3.43 |
| AGUAAGCAAUAUUACGUUGU | -1.97 |
| AGUUAGCAAUAUUACGCUGU | -2.01 |
| CGGUAGCAAUAUUACGACCA | -0.426 |
| UAGCAGCAAUAUUACGCGCC | -1.16 |
| CGUAAGCAAUAUUACGGCGG | -0.126 |
| UCGCAGCAAUAUUACGCCAA | -1.23 |
| ACGCAGCAAUAUUACGCUUG | -2.55 |
| CGGUAGCAAUAUUACGGCCC | 0.668 |
| GAGGAGCAAUAUUACGGCGA | -0.687 |
| UACAAGCAAUAUUACGAAGG | -1.38 |
| ACGGAGCAAUAUUACGGGUC | -2.58 |
| ACGAAGCAAUAUUACGCGAC | -1.78 |
| UGCGAGCAAUAUUACGGAAA | -2.55 |
| UGGUAGCAAUAUUACGAACU | 0.0176 |
| UAGCAGCAAUAUUACGGAAC | -3.08 |
| UAUCAGCAAUAUUACGGAAU | -1.27 |
| UAAUAGCAAUAUUACGUUCA | -0.14 |
| CCCAAGCAAUAUUACGCAUC | -1.32 |
| AAGAAGCAAUAUUACGAGUC | -1.51 |
| UUACAGCAAUAUUACGGUAG | -0.729 |
| UAUAAGCAAUAUUACGUAAC | 0.142 |
| UAGCAGCAAUAUUACGUCGU | -1.97 |
| AGGCAGCAAUAUUACGGAUU | 0.356 |
| UGCCAGCAAUAUUACGCUCU | 0.293 |
| GCGCAGCAAUAUUACGGUUG | -3.34 |
| AUGUAGCAAUAUUACGAUCG | -1.12 |
| ACCUAGCAAUAUUACGACCC | -0.637 |
| GCGCAGCAAUAUUACGUAAA | 0.263 |
| UGUUAGCAAUAUUACGCAUC | -1.93 |
| ACUAAGCAAUAUUACGCCGA | -0.197 |
| AAGUAGCAAUAUUACGUCCC | -0.156 |
| UGCCAGCAAUAUUACGAGCU | -0.631 |
| GGCUAGCAAUAUUACGUUCU | -0.358 |
| UGCAAGCAAUAUUACGACAU | -0.674 |
| CUGGAGCAAUAUUACGAGGC | -0.672 |
| GACAAGCAAUAUUACGAUCG | -0.39 |
| CCUAAGCAAUAUUACGUCUG | -2 |
| UCAUAGCAAUAUUACGCGGU | -2.2 |
| CGGAAGCAAUAUUACGAUGG | 0.233 |
| GAAGAGCAAUAUUACGGUCG | -1.61 |
| UGCAAGCAAUAUUACGGAGG | -1.42 |
| UUCAAGCAAUAUUACGUCCU | -1.04 |
| GGAUAGCAAUAUUACGGGCC | -1.65 |
| GGGAAGCAAUAUUACGAAUC | -0.499 |
| ACGAAGCAAUAUUACGUAAC | -2.34 |
